Let's look at some sequences and their measured switch fluorescence ratio.
# Test system: ATP;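 also: ATP exposure 15 min at 22 °C before imaging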
# method-notes: switch fluorescence ratio, 500 uM ATP over buffer (Cy3 cluster intensity, sum of 5 cycles each) (fold (ratio)); higher = stronger signal-on switching upon ATP binding; sequences stand for … in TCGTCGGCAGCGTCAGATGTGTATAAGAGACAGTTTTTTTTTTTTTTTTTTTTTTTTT…TC
# applied-conditions: aptamer strand: ATP DNA aptamer (quencher-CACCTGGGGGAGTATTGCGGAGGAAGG + anchor), 100 nM annealed; ATP concentration: 500 uM
assay-readout: switch fluorescence ratio

INSERT INTO results (construct_sequence, reported) VALUES
  ('GCAGGGGAAG', 0.99),
  ('TACAAGGCTT', 0.993),
  ('TAATATTTAG', 0.986),
  ('CGCGAGAGTT', 1.02),
  ('GAGGGGTATT', 0.986),
  ('TCGTTAGAGG', 0.972),
  ('AGTACACGTG', 0.993),
  ('ATAGTCGCCC', 1.01),
  ('GAAGGTCCAC', 1.02),
  ('TTAATTCTGG', 0.998),
  ('CTCGTTTTGA', 0.975),
  ('ATCGCTGGTA', 1.02),
  ('AAATTTTTTG', 1);
